Ref: ChEMBL document CHEMBL1201862

# System: OVCAR-3
# TEST_NAME: NCI tumour cell line growth inhibition, 48 h
Calls of active or inactive are those of the source. Rule as the data show it: active = GI50 up to about 1.1 µM and inactive = higher.
MEASURE: GI50

Use these answered entries as a reference point.
                                   compound             measured
0  Cc1cn(CCCCCCOC(=O)NC(CCCNC(N)=O)C(=O)O)c(=O)[nH]c1=O (stereo not drawn)  > 100 µM (inactive)
1  COC(=O)C1CCC2(CC1)NC(=O)NC2=O (stereo not drawn)  > 100 µM (inactive)

Now look at this one.
Return GI50 for the following compound: Nc1nc(N)nc(-c2ccccc2NS(=O)(=O)c2ccc([N+](=O)[O-])cc2)n1
54 µM (inactive)
